# Experimental System: G-protein coupled bile acid receptor 1 (Homo sapiens)
# Sequence (whole entry): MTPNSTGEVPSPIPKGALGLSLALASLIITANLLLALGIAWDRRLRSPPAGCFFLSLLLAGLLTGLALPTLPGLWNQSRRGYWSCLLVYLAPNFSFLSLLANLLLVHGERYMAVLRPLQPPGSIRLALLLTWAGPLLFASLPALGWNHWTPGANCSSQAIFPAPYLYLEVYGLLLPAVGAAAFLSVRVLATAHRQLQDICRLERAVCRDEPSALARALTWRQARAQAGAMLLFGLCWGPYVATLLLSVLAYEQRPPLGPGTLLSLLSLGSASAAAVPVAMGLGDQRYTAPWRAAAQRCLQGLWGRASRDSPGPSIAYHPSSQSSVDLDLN
# Experiment Summary: Agonist activity at N-terminal HA-tagged human TGR5 expressed in HEK293 cells assessed as […] in intracellular cAMP levels incubated for 30 mins by Lance Ultra cAMP assay relative to control
# Type: functional, cell-based
# Condition Details: filed as agonist
Measurement Label: Emax (%)
Express it in %; write the number only.

>>> df
                                item_smiles  quantitative_result
0  CC(C)[C@@H]1CC[C@]2(C(=O)O)CC[C@]3(C)[C@H](CC[C@@H]4[C@@]5(C)CC[C@@H](OC(=O)Nc6cc[nH]n6)C(C)(C)[C@@H]5CC[C@]43C)[C@@H]12                   94

Ask: Item under review: C[C@@H](O)[C@@H]1CC[C@]2(C(=O)O)CC[C@]3(C)[C@H](CC[C@@H]4[C@@]5(C)CC[C@@H](OC(=O)NC6CC6)C(C)(C)[C@@H]5CC[C@]43C)[C@@H]12 . Reported Emax?
Result: 99

Ask: Reported Emax for CCNC(=O)O[C@@H]1CC[C@]2(C)[C@H]3CC[C@@H]4[C@H]5[C@H](C(C)C)CC[C@]5(C(=O)O)CC[C@@]4(C)[C@]3(C)CC[C@H]2C1(C)C : what is it?
Result: 100

* * *

# Experimental System: G-protein coupled bile acid receptor 1 (Homo sapiens) (UniProt Q8TDU6)
# Experiment Summary: Agonist activity at N-terminal HA-tagged human TGR5 expressed in HEK293 cells assessed as […] in intracellular cAMP levels incubated for 30 mins by Lance Ultra cAMP assay relative to control
# Type: functional, cell-based
# Condition Details: filed as agonist
Measurement Label: Emax (%)
Reply with just the number (in %).

Item Smiles	Quantitative Result
CC(C)[C@@H]1CC[C@]2(C(=O)NCC(=O)O)CC[C@]3(C)[C@H](CC[C@@H]4[C@@]5(C)CC[C@@H](OC(=O)NC6CC6)C(C)(C)[C@@H]5CC[C@]43C)[C@@H]12	96
C[C@H](O)[C@@H]1CC[C@]2(C(=O)O)CC[C@]3(C)[C@H](CC[C@@H]4[C@@]5(C)CC[C@@H](OC(=O)NC6CC6)C(C)(C)[C@@H]5CC[C@]43C)[C@@H]12	99

Ask: Look up Emax: CCCC(=O)O[C@@H]1CC[C@]2(C)[C@H]3CC[C@@H]4[C@H]5[C@H](C(C)C)CC[C@]5(C(=O)O)CC[C@@]4(C)[C@]3(C)CC[C@H]2C1(C)C
Result: 94

* * *

// recovery at 1.583 h, 10 µM lookup, one value per entry
# Experiment Summary: Apparent permeability in human Caco2 cells across basolateral side to apical side assessed as drug recovery at 10 uM incubated for 95 mins by liquid chromatography-tandem mass spectrometry
# Format: ADME, cell-based
# Condition Details: Caco-2, read-out: Drug recovery
# number only, unit % dropped from output

Item Smiles	recovery at 1.583 h, 10 µM / %
CCCC(=O)O[C@@H]1CC[C@]2(C)[C@H]3CC[C@@H]4[C@H]5[C@H](C(C)C)CC[C@]5(C(=O)O)CC[C@@]4(C)[C@]3(C)CC[C@H]2C1(C)C	0

Ask: Any idea what recovery at 1.583 h, 10 µM was measured for C[C@H](O)[C@@H]1CC[C@]2(C(=O)[O-])CC[C@]3(C)[C@H](CC[C@@H]4[C@@]5(C)CC[C@@H](OC(=O)NC6CC6)C(C)(C)[C@@H]5CC[C@]43C)[C@@H]12.[Na+] ?
Result: 85.1

Attribution: ChEMBL document CHEMBL4837241
